TGT: Human Tryptophan 2,3-dioxygenase (TDO) (Homo sapiens, UniProt P48775)
Construct: His tag (N); made in house; host or cells: E. coli
Sequence (P48775 whole entry): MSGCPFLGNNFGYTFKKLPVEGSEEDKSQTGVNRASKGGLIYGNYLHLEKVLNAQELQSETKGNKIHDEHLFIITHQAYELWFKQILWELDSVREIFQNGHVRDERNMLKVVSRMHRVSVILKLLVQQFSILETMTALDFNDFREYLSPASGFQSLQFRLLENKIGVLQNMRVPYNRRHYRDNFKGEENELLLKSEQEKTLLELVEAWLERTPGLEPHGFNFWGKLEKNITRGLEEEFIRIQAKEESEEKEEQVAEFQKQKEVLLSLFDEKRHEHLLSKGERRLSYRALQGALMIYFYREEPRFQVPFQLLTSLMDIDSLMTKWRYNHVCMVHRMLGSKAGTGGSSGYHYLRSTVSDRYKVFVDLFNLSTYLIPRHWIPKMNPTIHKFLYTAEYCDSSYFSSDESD
ASSAY_DETAILS: Human TDO enzymatic assay (kynurenine level)
Assay type: biochemical
TEST_SETTINGS: 1 nM TDO, 350 μM L-Trp; geometric mean; read-out: TDO GMean: IC50 (μM) (Biochemical Assay)
REPORTED_PROPERTY: IC50

- CC(C)(C1CCN(C(=O)CN2CCS(=O)(=O)CC2)CC1)[C@H](O)c1cc(Cl)cc2cn[nH]c12 [Compound P-0497]: 0.0001 to 10 µM
- CC(C)(C1CCN(C(=O)Nc2ccc(F)nc2)CC1)[C@H](O)c1cc(Cl)cc2cn[nH]c12 [Compound P-0559]: 0.0001 to 10 µM
- CC1(C(O)c2cc(Cl)cc3cn[nH]c23)CCN(S(C)(=O)=O)CC1 (stereo not shown) [Compound P-0286]: 0.0001 to 10 µM
- O=C(Nc1ccc(F)cc1)N1CCC(C2(C(O)c3cc(Cl)cc4cn[nH]c34)CC2)CC1 (stereo not shown) [Compound P-0157]: 0.0001 to 10 µM

====

TGT: Human Indoleamine 2,3-dioxygenase (IDO) (Homo sapiens)
Construct: His tag (N); made in house; host or cells: E. coli
Sequence (P14902 whole entry): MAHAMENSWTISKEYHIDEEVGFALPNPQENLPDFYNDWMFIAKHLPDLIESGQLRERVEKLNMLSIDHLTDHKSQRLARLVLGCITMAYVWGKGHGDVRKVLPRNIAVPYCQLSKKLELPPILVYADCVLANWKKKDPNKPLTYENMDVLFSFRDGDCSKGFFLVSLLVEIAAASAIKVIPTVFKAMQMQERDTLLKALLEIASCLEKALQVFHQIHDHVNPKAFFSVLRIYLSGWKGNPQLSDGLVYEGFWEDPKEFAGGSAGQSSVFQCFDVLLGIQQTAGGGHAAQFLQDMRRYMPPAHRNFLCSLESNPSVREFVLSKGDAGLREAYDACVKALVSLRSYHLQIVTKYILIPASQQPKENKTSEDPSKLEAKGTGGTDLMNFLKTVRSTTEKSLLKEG
ASSAY_DETAILS: Human IDO enzymatic assay (kynurenine level)
Assay type: biochemical
TEST_SETTINGS: 6 nM IDO, 10 μM L-Trp; geometric mean; read-out: IDO1 GMean: IC50 (μM) (Biochemical Assay)
Recorded IC50 values for a group of compounds are listed next.
REPORTED_PROPERTY: IC50

• CCCOc1ccc(C(O)c2cccc3cncn23)cc1 (stereo not shown) [Compound P-0064] = 0.0001 to 10 µM
• CC(C)(C1CCN(C(=O)NCc2ccc(C#N)nc2)CC1)[C@H](O)c1cc(Cl)cc2cn[nH]c12 [Compound P-0590] = 0.0001 to 10 µM
• OC(c1ccccc1Cl)c1cccc2cncn12 (stereo not shown) [Compound P-0077] = > 200 µM
• OC(c1ccc(OC(F)(F)F)cc1)c1cccc2cncn12 (stereo not shown) [Compound P-0065] = 0.0001 to 10 µM

====

Recorded IC50 values for a group of compounds are listed next.
TGT: human IDO (IDO1-expressing HEK293 cells) (Homo sapiens, UniProt P14902)
Construct: expressed in transfected cells
Sequence (P14902 whole entry): as above
ASSAY_DETAILS: Cell based kynurenine assay, IDO1-expressing HEK293 cell clones
TEST_SETTINGS: IDO1-expressing HEK293 cells, 24 hours incubation; geometric mean; read-out: HEK293 IDO1 Kynurenine GMean IC50 (μM) (Cellular Assay)
Experimental: Determine Inhibitor Activity Against IDO or TDO in Cell Based Kynurenine Assay IDO1-expressing or TDO-expressing HEK293 cell clones are generated upon stable transfection of plasmids expressing human IDO or human TDO under the control of CMV promoter. […] Cells were seeded in a 96 well plate in 50 μL of culture media at a density of 2.5×10^4 per well. […] After 24 hours of incubation, the supernatant was transferred to a 384 well reaction plate and the kynurenine level determined. […]
REPORTED_PROPERTY: IC50

• CC(C)(C1CCN(C(=O)Nc2ccc(F)cc2)CC1)[C@H](O)c1cc(Cl)cc2cn[nH]c12 = 0.0001 to 10 µM
• O=C(C1CC1)N1CCC(C(F)(F)C(O)c2cc(Cl)cc3cn[nH]c23)CC1 (stereo not shown) = 0.0001 to 10 µM
• CC(C)(C1CCN(C2CCCC2)CC1)C(O)c1cc(Cl)cc2cn[nH]c12 (stereo not shown) = 0.0001 to 10 µM
• CS(=O)(=O)N1CCC(C(F)(F)C(O)c2c3c(cc4cn[nH]c24)CC3)CC1 (stereo not shown) = 0.0001 to 10 µM
• O=S(=O)(NC1CC(O)(c2cc(Cl)cc3cn[nH]c23)C1)C1CC1 (stereo not shown) = > 10 µM
• CC1(C(O)c2cc(Cl)cc3cn[nH]c23)CCOCC1 (stereo not shown) = 0.0001 to 10 µM
• COCCCNC(=O)N1CCC(C(C)(C)C(O)c2cc(Cl)cc3cn[nH]c23)CC1 (stereo not shown) = 0.0001 to 10 µM
• OC(c1cccc2cncn12)C1CC2CCC1C2 (stereo not shown) = 0.0001 to 10 µM
• OC(c1cccc2cncn12)C1CCC(F)(F)CC1 (stereo not shown) = > 10 µM
• OC1(c2cc(Cl)cc3cn[nH]c23)CC2(COC2)C1 = 0.0001 to 10 µM
• CC(=O)N1C[C@H]2CC[C@@H](C1)[C@@H]2C(F)(F)C(O)c1c(F)c(Cl)cc2cn[nH]c12 (stereo partly shown) = 0.0001 to 10 µM
• OC(c1cc(Cl)cc2[nH]ncc12)C12CCC(CC1)CC2 (stereo not shown) = > 10 µM
• CC1(C)C2CCC(C2)[C@]12C[C@@](O)(c1cc(Cl)cc3cn[nH]c31)C2 (stereo partly shown) = 0.0001 to 10 µM
